assay: Cytotoxicity against human TZM-bl cells after 24 hrs by MTT assay; assay type: cell-based
quantity kind: CC50 at 24 h (µM)
Output spec: scalar in µM, unitless text.

GET /value?item= Cc1cc(C)c(Nc2ccnc(Nc3ccc(C#N)cc3)n2)c(C)c1 &field=CC50 at 24 h returns 20.4

----------
tested on: Human immunodeficiency virus 1; assay: Antiviral activity against HIV-1 Bal infected in human PM1 cells after 7 days by RT assay; type: functional, organism-based; settings: Human immunodeficiency virus 1, Bal, PM1, 168 h
quantity kind: pIC50
Just so you know, pIC50 here is -log10 of the concentration in molar units; reply with that number alone.

GET /value?item= Cc1cc(C)c(Nc2ccnc(Nc3ccc(C#N)cc3)n2)c(C)c1 &field=pIC50 returns 8.22

----------
assay: Cytotoxicity against human PM1 cells after 24 hrs by MTT assay; type: cell-based
quantity kind: CC50 at 24 h

GET /value?item= Cc1cc(C)c(Nc2ccnc(Nc3ccc(C#N)cc3)n2)c(C)c1 &field=CC50 at 24 h returns 11 µM

----------
tested on: Human immunodeficiency virus 1; assay: Antiviral activity against HIV-1 Bal infected in 1 hr compound pretreated human ectocervical explant tissue assessed as inhibition of viral replication by RT-PCR; format: functional, organism-based; settings: Human immunodeficiency virus 1, Bal
quantity kind: pIC50
Just so you know, pIC50 here is -log10 of the concentration in molar units; reply with that number alone.

GET /value?item= Cc1cc(C)c(Nc2ccnc(Nc3ccc(C#N)cc3)n2)c(C)c1 [DAPIVIRINE] &field=pIC50 returns 9.70

----------
tested on: Human immunodeficiency virus 1; assay: Antiviral activity against HIV-1 3B infected in human MT4 cells after 3 to 5 days by MTT assay; details: Human immunodeficiency virus 1, 3B, MT4, 72 to 120 h
quantity kind: pIC50
Just so you know, pIC50 here is -log10 of the concentration in molar units; reply with that number alone.

GET /value?item= Cc1cc(C)c(Nc2ccnc(Nc3ccc(C#N)cc3)n2)c(C)c1 &field=pIC50 returns 9.05
